Reference source: PubChem BioAssay AID1159580

assay: chemical genetic growth profiling, strain panel (AID 1159580);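 further: tested at 20 µM; growth read once vehicle control cultures reached saturation at 30 °C; 1 = growth at the plate median or of vehicle wells; lower values mean less growth of the strain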; settings: S. cerevisiae deletion strains, growth OD, locus YEL061C, strain CIN8, hits give low values
The campaign covered roughly 5,500 compounds. About 2,000 (36%) were called active. About 18% were inconclusive and are not listed. Some of the results follow.
Quick reference: normalized growth of the listed items.

{"columns": ["compound", "endpointValue"],
 "data": [
  ["CCN(CCCCOC(=O)c1ccc(OC)c(OC)c1)C(C)Cc1ccc(OC)cc1 (stereo not drawn)", "0.979 (inactive)"],
  ["COc1ccc(-c2cc(=O)c3c(OC(C)=O)cc(OC(C)=O)cc3o2)cc1", "0.982 (inactive)"],
  ["COc1cc2c3cc1Oc1cc(ccc1O)C[C@@H]1c4c(cc(OC)c(O)c4Oc4ccc(cc4)C[C@@H]3N(C)CC2)CC[N+]1(C)C", "1.01 (inactive)"],
  ["CCOC(=O)c1c(SC)[nH]c2c(C(F)(F)F)cccc2c1=O", "1.02 (inactive)"],
  ["CSc1ccc2c(c1)C(N1CCN(C)CC1)Cc1ccccc1S2 (stereo not drawn)", "0.975 (inactive)"],
  ["CC(=O)O[C@H]1C[C@H](O[C@H]2[C@@H](O)C[C@H](O[C@H]3[C@@H](O)C[C@H](O[C@H]4CC[C@@]5(C)C(CCC6C5C[C@@H](O)[C@]5(C)[C@@H](C7=CC(=O)OC7)CC[C@]65O)C4)O[C@@H]3C)O[C@@H]2C)O[C@H](C)[C@H]1O[C@@H]1O[C@H](CO)[C@@H](O)[C@H](O)[C@H]1O (stereo partly drawn)", "1.01 (inactive)"]
]}

The reported value for Cc1ccc(COc2ccc(C)nc2[N+](=O)[O-])cc1 in terms of normalized growth is 0.922 (inactive)

So for O=c1c(-c2cc(O)c(O)c(O)c2)coc2cc(O)c(O)c(O)c12 , the logged normalized growth turned out to be 0.878 (active)

###

test: chemical genetic growth profiling, strain panel (AID 1159580);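 further: tested at 20 µM; growth read once vehicle control cultures reached saturation at 30 °C; 1 = growth at the plate median or of vehicle wells; lower values mean less growth of the strain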; conditions: S. cerevisiae deletion strains, growth OD, locus YLR371W, strain rom2, hits give low values
Hit rate of the full screen: of about 5,500 compounds, about 2,000 (36%) were called active. Not shown: some 18% with an inconclusive outcome. This is one part of the list.
# reported normalized growth; entries follow
Lab note: record just the number, no unit beside it.

Some solved entries appear below for comparison.
{"columns": ["molecule", "normalized growth"],
 "data": [
  ["C=CCc1ccccc1OCC(O)CNC(C)C (stereo unspecified)", 1.01],
  ["COc1ccc(-c2coc3cc(OC)cc(O)c3c2=O)cc1", 0.969],
  ["CC1=NCCc2c1[nH]c1cc(O)ccc21", 0.978],
  ["CC(=O)[C@H]1CCC2C3CC=C4C[C@@H](O)CC[C@]4(C)C3CC[C@@]21C (stereo partly specified)", 1.02],
  ["CC(=O)Oc1cc(OC(C)=O)c2c(=O)c(-c3ccccc3)coc2c1", 1]
]}

CCC(/C=C/[C@@H](C)[C@H]1CCC2C3CC=C4C[C@@H](O)CC[C@]4(C)C3CC[C@@]21C)C(C)C (stereo partly specified) yielded normalized growth of 0.999

Just so you know, measured normalized growth for O=c1c(-c2ccccc2)coc2cc(O)cc(O)c12 came out at 0.715

###

test: chemical genetic growth profiling, strain panel (AID 1159580);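 further: tested at 20 µM; growth read once vehicle control cultures reached saturation at 30 °C; 1 = growth at the plate median or of vehicle wells; lower values mean less growth of the strain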; conditions: S. cerevisiae deletion strains, growth OD, locus YBR229C, strain ROT2
About 2,000 (36%) of roughly 5,500 compounds were called active. Not shown: some 18% with an inconclusive outcome. No stated cut-off is given here; in the data, active means normalized growth mostly below about 0.91 (no sharp cut-off); inconclusive means no clear call, values can overlap the other calls; inactive means mostly above about 0.92. Some of the results follow.
Choose one outcome from this list and give only that: active, inactive

Answered examples (3):
{"columns": ["compound", "label"],
 "data": [
  ["Cc1cc(=O)c2c(O)c3c(cc2o1)OCC(C)CC3 (stereo not drawn)", "inactive"],
  ["COC(=O)C1=C(C)NC(C)=C(C(=O)OC)C1c1ccccc1[N+](=O)[O-]", "inactive"],
  ["COc1ccc(-c2cc(=O)c3c(OC(C)=O)cc(OC(C)=O)cc3o2)cc1", "inactive"]
]}

Entry CCCCCCc1ccc(O)cc1O : call = ?
inactive

Called result for CC(=O)Oc1cc(-c2coc3cc(OC(C)=O)c(OC(C)=O)c(OC(C)=O)c3c2=O)cc(OC(C)=O)c1OC(C)=O
active

Which outcome was entered for the compound CC(C)=CCc1c2c(c(O)c3c(=O)c(O)c(-c4ccccc4)oc13)C=CC(C)(C)O2 in this test?
active

Called result for O=C1CCc2cc(OCCCCc3nnnn3C3CCCCC3)ccc2N1
inactive

For this compound, state the assay outcome: CC1=NCCc2c1[nH]c1cc(O)ccc21
inactive

// param item: C=CCn1c(Sc2ncc([N+](=O)[O-])s2)n[nH]c1=O ; yields the recorded call
active

Record lookup: outcome of this test for Cc1cc2cc3c(C)cc(=O)oc3c(C)c2o1 ?
inactive

Lab log entry: C[N+]1(CCCCC[N+]2(C)CCCC2)CCCC1 — outcome as called in the assay?
inactive

Per the records of this test, what outcome belongs to CC(=O)Oc1c(-c2ccccc2)oc2c(CC=C(C)C)c3c(c(OC(C)=O)c2c1=O)C=CC(C)(C)O3 ?
inactive
